The origin of these recorded values is paper PMC3961306.

Target: panel of more than 300 wild-type and mutant kinases (313 kinase panel) (Homo sapiens)
Assay: Kinase profiling in a biochemical assay panel (mobility shift assays and ELISA), %-inhibition at 1 μM; selectivity entropy
Settings: kinase BRAF; 1 μM compound
READOUT KIND: %-inhibition, BRAF (%)
Could you give me the number in %? Just the number is fine.

Illustrative cases are given below, each with its answer.
- COMPOUND: "CCCS(=O)(=O)Nc1ccc(F)c(C(=O)c2c[nH]c3ncc(-c4ccc(Cl)cc4)cc23)c1F [vemurafenib]"
  %-inhibition, BRAF / %: 99
- COMPOUND: "CO[C@H]1C[C@@H]2CC[C@@H](C)[C@@](O)(O2)C(=O)C(=O)N2CCCC[C@H]2C(=O)O[C@H]([C@H](C)C[C@@H]2CC[C@@H](OCCO)[C@H](OC)C2)CC(=O)[C@H](C)/C=C(\\C)[C@@H](O)[C@@H](OC)C(=O)[C@H](C)C[C@H](C)/C=C/C=C/C=C/1C [everolimus]"
  %-inhibition, BRAF / %: -6.54

# input for lookup
*Q* Any idea what %-inhibition, BRAF was measured for O=S(=O)(c1cccc2cnccc12)N1CCCNCC1 [fasudil] ?
*A* -3.28

###

Below: a set of entries, each annotated with reported %-inhibition, CK2α1/β.
Target: panel of more than 300 wild-type and mutant kinases (313 kinase panel) (Homo sapiens, UniProt P68400)
Experiment: Kinase profiling in a biochemical assay panel (mobility shift assays and ELISA), %-inhibition at 1 μM; selectivity entropy
Conditions: kinase CK2α1/β; 1 μM compound
Give just the number in %; leave the unit off.

- MOLECULE: "CS(=O)(=O)CCNCc1ccc(-c2ccc3ncnc(Nc4ccc(OCc5cccc(F)c5)c(Cl)c4)c3c2)o1 [lapatinib]"
  %-inhibition, CK2α1/β (%): -1.7
- MOLECULE: "N#CC[C@H](C1CCCC1)n1cc(-c2ncnc3[nH]ccc23)cn1 [ruxolitinib]"
  %-inhibition, CK2α1/β (%): -6

Shifting focus to the molecule that follows.
*Q* %-inhibition, CK2α1/β lookup needed for CO[C@H]1C[C@@H]2CC[C@@H](C)[C@@](O)(O2)C(=O)C(=O)N2CCCC[C@H]2C(=O)O[C@H]([C@H](C)C[C@@H]2CC[C@@H](OCCO)[C@H](OC)C2)CC(=O)[C@H](C)/C=C(\C)[C@@H](O)[C@@H](OC)C(=O)[C@H](C)C[C@H](C)/C=C/C=C/C=C/1C [everolimus] , thanks.
*A* -4.26

###

Biological target: panel of more than 300 wild-type and mutant kinases (313 kinase panel) (Homo sapiens)
Test: Kinase profiling in a biochemical assay panel (mobility shift assays and ELISA), %-inhibition at 1 μM; selectivity entropy
Conditions: kinase CaMK1δ; 1 μM compound
Listed here are molecules together with their documented %-inhibition, CaMK1δ.
Value expressed in %; do not type the unit.

- MOLECULE: "COc1cc2nccc(Oc3ccc(NC(=O)C4(C(=O)Nc5ccc(F)cc5)CC4)cc3)c2cc1OC [cabozantinib]"
  %-inhibition, CaMK1δ [%]: -1.37

*Q* State the recorded %-inhibition, CaMK1δ for this entry: CO[C@H]1C[C@@H]2CC[C@@H](C)[C@@](O)(O2)C(=O)C(=O)N2CCCC[C@H]2C(=O)O[C@H]([C@H](C)C[C@@H]2CC[C@@H](OC(=O)C(C)(CO)CO)[C@H](OC)C2)CC(=O)[C@H](C)/C=C(\C)[C@@H](O)[C@@H](OC)C(=O)[C@H](C)C[C@H](C)/C=C/C=C/C=C/1C
*A* -7

*Q* Field entry: C[C@@H](Oc1cc(-c2cnn(C3CCNCC3)c2)cnc1N)c1c(Cl)ccc(F)c1Cl
*A* -4

*Q* Quick one: COc1cc2c(Nc3ccc(Br)cc3F)ncnc2cc1OCC1CCN(C)CC1
*A* -3

*Q* // repeat for CC(=O)Nc1cccc(-n2c(=O)n(C3CC3)c(=O)c3c(Nc4ccc(I)cc4F)n(C)c(=O)c(C)c32)c1 and report
*A* -3.3

###

Target: panel of more than 300 wild-type and mutant kinases (313 kinase panel) (Homo sapiens)
Assay: Kinase profiling in a biochemical assay panel (mobility shift assays and ELISA), %-inhibition at 1 μM; selectivity entropy
Conditions: kinase JAK1; compound at 1 μM
READOUT KIND: %-inhibition of JAK1 (%)
Respond numerically; units are % and should not be typed.

- COMPOUND: "Cc1ccc(Nc2nccc(N(C)c3ccc4c(C)n(C)nc4c3)n2)cc1S(N)(=O)=O [pazopanib]"
  %-inhibition of JAK1, %: 9

*Q* Observed %-inhibition of JAK1 on panel of more than 300 wild-type and mutant kinases (313 kinase panel) (Homo sapiens) for O=S(=O)(c1cccc2cnccc12)N1CCCNCC1 [fasudil] , please.
*A* -1.43

*Q* Please do the same for C[C@@H](Oc1cc(-c2cnn(C3CCNCC3)c2)cnc1N)c1c(Cl)ccc(F)c1Cl [crizotinib] as well.
*A* 47

*Q* Then Cc1ccc(C(=O)Nc2ccc(CN3CCN(C)CC3)c(C(F)(F)F)c2)cc1C#Cc1cnc2cccnn12 [ponatinib] ?
*A* 99

*Q* Can you handle CO[C@H]1C[C@@H]2CC[C@@H](C)[C@@](O)(O2)C(=O)C(=O)N2CCCC[C@H]2C(=O)O[C@H]([C@H](C)C[C@@H]2CC[C@@H](OC(=O)C(C)(CO)CO)[C@H](OC)C2)CC(=O)[C@H](C)/C=C(\C)[C@@H](O)[C@@H](OC)C(=O)[C@H](C)C[C@H](C)/C=C/C=C/C=C/1C [temsirolimus] next?
*A* -7

*Q* Also CNC(=O)c1cc(Oc2ccc(NC(=O)Nc3ccc(Cl)c(C(F)(F)F)c3)c(F)c2)ccn1 [regorafenib] ?
*A* 31

*Q* # repeat for CCCS(=O)(=O)Nc1ccc(F)c(C(=O)c2c[nH]c3ncc(-c4ccc(Cl)cc4)cc23)c1F [vemurafenib]
*A* 46

*Q* Please do the same for COc1cc(Nc2c(C#N)cnc3cc(OCCCN4CCN(C)CC4)c(OC)cc23)c(Cl)cc1Cl [bosutinib] as well.
*A* -2

*Q* Quick one: COc1cc2c(Nc3ccc(Br)cc3F)ncnc2cc1OCC1CCN(C)CC1 [vandetanib]
*A* -3.31

*Q* Same thing, different compound: COc1cc2nccc(Oc3ccc(NC(=O)C4(C(=O)Nc5ccc(F)cc5)CC4)cc3)c2cc1OC [cabozantinib]
*A* -1.59

*Q* Would you mind doing CC(C)(C)c1nc(-c2cccc(NS(=O)(=O)c3c(F)cccc3F)c2F)c(-c2ccnc(N)n2)s1 [dabrafenib] as well?
*A* 5.7

*Q* Next: CS(=O)(=O)CCNCc1ccc(-c2ccc3ncnc(Nc4ccc(OCc5cccc(F)c5)c(Cl)c4)c3c2)o1 [lapatinib]
*A* -3

*Q* Do the same for CC(=O)Nc1cccc(-n2c(=O)n(C3CC3)c(=O)c3c(Nc4ccc(I)cc4F)n(C)c(=O)c(C)c32)c1 [trametinib] please
*A* -1.83

*Q* Continue with CO[C@H]1C[C@@H]2CC[C@@H](C)[C@@](O)(O2)C(=O)C(=O)N2CCCC[C@H]2C(=O)O[C@H]([C@H](C)C[C@@H]2CC[C@@H](OCCO)[C@H](OC)C2)CC(=O)[C@H](C)/C=C(\C)[C@@H](O)[C@@H](OC)C(=O)[C@H](C)C[C@H](C)/C=C/C=C/C=C/1C [everolimus]
*A* -7

###

Target: panel of more than 300 wild-type and mutant kinases (313 kinase panel) (Homo sapiens, UniProt O14920)
Sequence (O14920 whole entry, change not shown): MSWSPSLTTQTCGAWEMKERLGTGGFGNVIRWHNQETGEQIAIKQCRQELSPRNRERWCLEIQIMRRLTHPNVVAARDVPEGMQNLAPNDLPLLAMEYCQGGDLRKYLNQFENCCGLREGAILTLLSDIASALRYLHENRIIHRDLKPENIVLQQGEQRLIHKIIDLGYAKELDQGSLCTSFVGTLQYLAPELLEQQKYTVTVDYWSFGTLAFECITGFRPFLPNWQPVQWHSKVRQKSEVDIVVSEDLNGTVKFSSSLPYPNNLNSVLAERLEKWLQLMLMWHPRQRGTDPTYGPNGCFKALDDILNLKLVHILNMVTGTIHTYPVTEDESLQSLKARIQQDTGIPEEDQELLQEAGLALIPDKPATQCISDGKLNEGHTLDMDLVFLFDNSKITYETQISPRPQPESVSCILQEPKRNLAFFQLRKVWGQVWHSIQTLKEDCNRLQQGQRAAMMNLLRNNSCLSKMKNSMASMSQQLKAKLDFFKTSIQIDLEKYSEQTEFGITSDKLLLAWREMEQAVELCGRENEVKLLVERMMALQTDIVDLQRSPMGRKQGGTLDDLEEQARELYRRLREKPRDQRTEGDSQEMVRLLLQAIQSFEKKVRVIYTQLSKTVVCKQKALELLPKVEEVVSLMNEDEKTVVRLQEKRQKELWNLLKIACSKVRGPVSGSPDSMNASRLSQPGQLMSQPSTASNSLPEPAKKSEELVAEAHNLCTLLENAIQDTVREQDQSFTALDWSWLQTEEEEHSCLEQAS
Test: Kinase profiling in a biochemical assay panel (mobility shift assays and ELISA), %-inhibition at 1 μM; selectivity entropy
Settings: kinase IKKβ; compound at 1 μM
READOUT KIND: %-inhibition of IKKβ (%)
Your answer should be a plain number; it is taken to be in %.

Before answering, review these 3 worked examples.
- COMPOUND: "Cc1ccc(Nc2nccc(N(C)c3ccc4c(C)n(C)nc4c3)n2)cc1S(N)(=O)=O [pazopanib]"
  READOUT KIND: "%-inhibition of IKKβ"
  ENDPOINT RESULT: 0.627
- COMPOUND: "CCCS(=O)(=O)Nc1ccc(F)c(C(=O)c2c[nH]c3ncc(-c4ccc(Cl)cc4)cc23)c1F [vemurafenib]"
  READOUT KIND: "%-inhibition of IKKβ"
  ENDPOINT RESULT: -3.31
- COMPOUND: "COc1cc2nccc(Oc3ccc(NC(=O)C4(C(=O)Nc5ccc(F)cc5)CC4)cc3)c2cc1OC [cabozantinib]"
  READOUT KIND: "%-inhibition of IKKβ"
  ENDPOINT RESULT: -2.35

Now look at this one.
*Q* Can you look up the measured %-inhibition of IKKβ of CO[C@H]1C[C@@H]2CC[C@@H](C)[C@@](O)(O2)C(=O)C(=O)N2CCCC[C@H]2C(=O)O[C@H]([C@H](C)C[C@@H]2CC[C@@H](OC(=O)C(C)(CO)CO)[C@H](OC)C2)CC(=O)[C@H](C)/C=C(\C)[C@@H](O)[C@@H](OC)C(=O)[C@H](C)C[C@H](C)/C=C/C=C/C=C/1C [temsirolimus] for me?
*A* -4.44
